target: N-terminally GST-tagged DLK (catalytic domain amino acid 1-520) (Homo sapiens, UniProt Q12852); construct: N-terminally GST-tagged DLK (catalytic domain amino acid 1-520); assay: DLK TR-FRET inhibition assay; details: 5 nM GST-DLK, 40 nM HIS-MKK4 K131M substrate, 30 μM ATP, 60 minutes at ambient temperature
Listed here: items and their measured pKi.
In simple prose, pKi is minus the logarithm base ten of a concentration in moles per litre.

Guide cases for pKi, answers given:
CC(C)n1nc(-c2cnc(N)c(OC(F)(F)F)c2)cc1[C@H]1[C@@H]2C[C@H](N3CC(F)(F)C3)C[C@@H]21    8.33
CC(C)n1nc(-c2cnc(N)c(OCC(F)(F)F)c2)cc1[C@H]1[C@@H]2C[C@@H](N3CCOCC3)C[C@@H]21    7.72
Nc1ncc(-c2cc([C@H]3[C@@H]4C[C@@H](N5CCOCC5)C[C@@H]43)n(CC(F)F)n2)cc1OC(F)F    8.62
CC(C)n1nc(-c2cnc(N)c(OC(F)(F)F)c2)cc1[C@H]1[C@@H]2C[C@@H](N(C)CC3COC3)C[C@@H]21    8.42
CO[C@H]1CCCN([C@H]2C[C@@H]3[C@H](C2)[C@H]3c2cc(-c3cnc(N)c(C(F)(F)F)c3)nn2C(C)C)C1    8.47
CC(C)n1nc(-c2cnc(N)c(C(F)(F)F)c2)cc1[C@H]1[C@@H]2C[C@@H](N(C)CC3COC3)C[C@@H]21    8.38

State, in one line, measured pKi of CO[C@H]1CCN([C@H]2C[C@@H]3[C@H](C2)[C@H]3c2cc(-c3cnc(N)c(OC(F)F)c3)nn2C(C)C)C1
8.36

For the compound Nc1ncc(-c2cc([C@H]3[C@@H]4C[C@H](N5CCOCC5)C[C@@H]43)n(C3CCCC3)n2)cc1OC(F)F , give its measured pKi value.
8.34

Note pKi for the compound shown: CC(C)n1nc(-c2cnc(N)c(OC(F)(F)F)c2)cc1[C@H]1[C@@H]2C[C@@H](N(C)C3COC3)C[C@@H]21
8.51

---

Entries and their Ki values follow.
Target: N-terminally GST-tagged DLK (catalytic domain amino acid 1-520) (Homo sapiens, UniProt Q12852)
Construct: N-terminally GST-tagged DLK (catalytic domain amino acid 1-520)
Sequence (Q12852 1-520): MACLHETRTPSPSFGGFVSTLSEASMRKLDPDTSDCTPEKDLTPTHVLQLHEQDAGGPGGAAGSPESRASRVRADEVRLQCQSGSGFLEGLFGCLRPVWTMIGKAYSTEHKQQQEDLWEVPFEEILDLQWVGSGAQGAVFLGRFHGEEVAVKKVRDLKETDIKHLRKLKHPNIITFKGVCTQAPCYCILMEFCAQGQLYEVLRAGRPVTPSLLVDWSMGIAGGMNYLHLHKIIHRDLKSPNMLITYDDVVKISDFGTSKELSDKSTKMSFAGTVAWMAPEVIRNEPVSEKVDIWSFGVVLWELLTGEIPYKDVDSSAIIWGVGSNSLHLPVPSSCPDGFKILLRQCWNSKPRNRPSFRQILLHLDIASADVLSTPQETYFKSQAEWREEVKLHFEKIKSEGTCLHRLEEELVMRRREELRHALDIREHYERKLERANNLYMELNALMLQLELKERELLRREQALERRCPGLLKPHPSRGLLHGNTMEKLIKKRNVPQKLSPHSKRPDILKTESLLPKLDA
Assay: DLK TR-FRET inhibition assay
Settings: 5 nM GST-DLK, 40 nM HIS-MKK4 K131M substrate, 30 μM ATP, 60 minutes at ambient temperature
Just the number in nM, nothing appended.

Consider the worked cases shown below.
CC(C)n1nc(-c2cnc(N)c(C(F)(F)F)c2)cc1[C@H]1[C@@H]2C[C@@H](N3CCS(=O)(=O)CC3)C[C@@H]21    4
Nc1ncc(-c2cc([C@@H]3[C@@H]4C[C@H](N5CCOCC5)C[C@@H]43)n(CC3CC3)n2)cc1OC(F)(F)F    209

Check the records and state Ki for Nc1ncc(-c2cc([C@H]3[C@@H]4C[C@@H](N5CCOCC5)C[C@@H]43)n(CC3CCC3)n2)cc1OC(F)F
5.06

---

Each entry below lists one item and its recorded pKi value.
Biological target: N-terminally GST-tagged DLK (catalytic domain amino acid 1-520) (Homo sapiens)
Construct: N-terminally GST-tagged DLK (catalytic domain amino acid 1-520)
Sequence (Q12852 1-520): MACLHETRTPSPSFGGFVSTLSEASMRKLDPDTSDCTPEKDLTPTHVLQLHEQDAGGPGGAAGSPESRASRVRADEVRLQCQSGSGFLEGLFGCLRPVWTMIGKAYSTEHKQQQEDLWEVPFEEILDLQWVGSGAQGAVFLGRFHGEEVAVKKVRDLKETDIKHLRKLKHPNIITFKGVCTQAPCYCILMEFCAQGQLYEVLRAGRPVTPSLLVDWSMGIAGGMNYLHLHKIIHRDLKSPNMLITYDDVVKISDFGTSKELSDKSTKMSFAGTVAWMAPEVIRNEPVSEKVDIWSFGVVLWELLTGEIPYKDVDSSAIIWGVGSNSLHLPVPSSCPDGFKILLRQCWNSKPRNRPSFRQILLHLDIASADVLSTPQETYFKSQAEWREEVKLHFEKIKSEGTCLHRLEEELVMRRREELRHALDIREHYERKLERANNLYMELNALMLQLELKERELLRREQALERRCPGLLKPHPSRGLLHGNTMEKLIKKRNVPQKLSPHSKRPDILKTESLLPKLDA
Experiment: DLK TR-FRET inhibition assay
Details: 5 nM GST-DLK, 40 nM HIS-MKK4 K131M substrate, 30 μM ATP, 60 minutes at ambient temperature
Give only the number. pKi is defined as minus log10 of concentration in molar units.

Answer briefly: pKi recorded on N-terminally GST-tagged DLK (catalytic domain amino acid 1-520) (Homo sapiens) for CC(C)n1nc(-c2cnc(N)c(OC(F)F)c2)cc1[C@H]1[C@@H]2C[C@@H](N3CCN(C)CC3)C[C@@H]21 [compound 199]
8.74

Enter pKi (test system N-terminally GST-tagged DLK (catalytic domain amino acid 1-520) (Homo sapiens)) for CC(C)n1nc(-c2cnc(N)c(C(F)(F)F)c2)cc1[C@H]1[C@@H]2CC(N3CCN4CCOCC4C3)C[C@@H]21 (single isomer, unassigned) [compound 196]
8.47

---

target: N-terminally GST-tagged DLK (catalytic domain amino acid 1-520) (Homo sapiens); construct: N-terminally GST-tagged DLK (catalytic domain amino acid 1-520); purchased Carna Bioscience; assay: DLK TR-FRET inhibition assay; format: biochemical; conditions: 5 nM GST-DLK, 40 nM HIS-MKK4 K131M substrate, 30 μM ATP, 60 minutes at ambient temperature
The following compounds are listed with their measured pKi values.
// returns pKi (minus log10 of molar concentration), number only

Example results:
CC(C)n1nc(-c2cnc(N)c(OC(F)(F)F)c2)cc1[C@H]1[C@@H]2C[C@H](N3CC4(CN(C)CCO4)C3)C[C@@H]21    8.68
CC(C)n1nc(-c2cnc(N)c(OC(F)F)c2)cc1[C@H]1[C@@H]2C[C@@H](Cl)C[C@@H]21    7.80
CC(C)n1nc(-c2cnc(N)c(C(F)(F)F)c2)cc1[C@H]1[C@@H]2C[C@@H](N3CCN(C)CC3)C[C@@H]21    8.41
CC(C)n1nc(-c2cnc(N)c(OC(F)F)c2)cc1[C@H]1[C@@H]2CC3(CCO3)C[C@@H]21 (stereo partly shown)    8.03
CC(C)n1nc(-c2cnc(N)c(OC(F)F)c2)cc1[C@H]1[C@@H]2C[C@@H](O)C[C@@H]21    7.84

Note down pKi recorded for CC(C)n1nc(-c2cnc(N)c(OC(F)F)c2)cc1[C@H]1[C@@H]2C[C@H](N3CCN(C)CC3)C[C@@H]21
8.68

---

target: N-terminally GST-tagged DLK (catalytic domain amino acid 1-520) (Homo sapiens, UniProt Q12852); construct: N-terminally GST-tagged DLK (catalytic domain amino acid 1-520); assay: DLK TR-FRET inhibition assay; details: 5 nM GST-DLK, 40 nM HIS-MKK4 K131M substrate, 30 μM ATP, 60 minutes at ambient temperature
assay-endpoint: Ki (nM)
Report the figure in nM without appending any unit label.

The cases that follow already have their Ki on record.
CC(C)n1nc(-c2cnc(N)c(OC(F)F)c2)cc1[C@H]1[C@@H]2C[C@@H](N3CCCN(C)CC3)C[C@@H]21    2.9
CC(C)n1nc(-c2cnc(N)c(OC(F)F)c2)cc1[C@H]1[C@@H]2C[C@@H](N3CCOCC3)C[C@@H]21 [compound 137]    3.34
CC(C)n1nc(-c2cnc3cnn([C@H](C)c4ccccn4)c3c2)cc1[C@H]1[C@@H]2C[C@@H](N3CCOCC3)C[C@@H]21    79.4
CC(C)n1nc(-c2cnc(N)c(C(F)(F)F)c2)cc1[C@H]1[C@@H]2C[C@H](N3CCC3)C[C@@H]21    3.59
CC(C)n1nc(-c2cnc3cnn([C@H](C)c4ccccn4)c3c2)cc1[C@H]1[C@@H]2C[C@H](N3CCOCC3)C[C@@H]21    123
CO[C@@H]1CCN([C@@H]2C[C@@H]3[C@H](C2)[C@H]3c2cc(-c3cnc(N)c(C(F)(F)F)c3)nn2C(C)C)C1    2.6
CC(C)n1nc(-c2cnc(N)c(OC(F)(F)F)c2)cc1[C@H]1[C@@H]2C[C@H](N3CC(F)C3)C[C@@H]21    2.83
CC(C)n1nc(-c2cnc(N)c(OC(F)F)c2)cc1[C@H]1[C@@H]2C[C@H](N3CCO[C@@H](C)C3)C[C@@H]21    0.52
CC(C)n1nc(-c2cnc(N)c(OC(F)F)c2)cc1[C@H]1[C@@H]2CC(N3CCOCC(F)C3)C[C@@H]21 (single isomer, unassigned)    4.1
CC(C)n1nc(-c2cnc(N)c(OC(F)F)c2)cc1[C@H]1[C@@H]2C[C@H](N3CCOC[C@H]3C)C[C@@H]21    1.43

Recall and state the measured Ki for CO[C@H]1CCN([C@H]2C[C@@H]3[C@H](C2)[C@H]3c2cc(-c3cnc(N)c(C(F)(F)F)c3)nn2CC(F)F)C1 .
3.3

Specify measured Ki for CC(C)n1nc(-c2cnc(N)c(OC(F)F)c2)cc1[C@H]1[C@@H]2C[C@@H](N3CCN(CC(F)F)CC3)C[C@@H]21 .
0.7
